Provide the reported Blocking of ATPase activity on cell surface (293T/17-cyno CD39, CellTiter Glo): EC50 of each item.
Target: T1, cyno CD39 on the cell surface (293T/17-cyno CD39 cells) (cyno, UniProt P49961 7-510 (human entry))
T1 chain: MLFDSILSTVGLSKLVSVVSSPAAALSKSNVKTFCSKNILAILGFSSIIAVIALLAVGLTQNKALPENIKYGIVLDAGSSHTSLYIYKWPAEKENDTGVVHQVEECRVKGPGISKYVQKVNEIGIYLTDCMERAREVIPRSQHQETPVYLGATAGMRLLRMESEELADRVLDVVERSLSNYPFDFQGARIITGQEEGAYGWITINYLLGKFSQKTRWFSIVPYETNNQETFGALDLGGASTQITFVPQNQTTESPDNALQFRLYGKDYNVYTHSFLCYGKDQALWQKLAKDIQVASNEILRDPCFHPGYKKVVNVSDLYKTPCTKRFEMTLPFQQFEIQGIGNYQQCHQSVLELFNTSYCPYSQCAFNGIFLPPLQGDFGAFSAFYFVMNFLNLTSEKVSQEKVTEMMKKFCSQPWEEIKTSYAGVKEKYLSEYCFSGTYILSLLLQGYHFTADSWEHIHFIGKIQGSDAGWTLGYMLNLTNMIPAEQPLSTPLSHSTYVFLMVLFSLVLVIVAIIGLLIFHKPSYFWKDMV
Assay: cell-based or functional assay
Answers are plain numbers, in nM.

[[record]]
binder = "216 hIgG2 (antibody, V domains shown, Chimeric antibody: mouse Fv fused to the human IgG2 constant region; also called chimeric antibody 216) VH: EVQLVESGGGLVKPGGSLKLPCAASGFTFSDYGMHWVRQAPEKGLEWVAYISSGSSIIYYADTVKGRFTISRDNAKNTLFLQMTSLRSEDTAMYYCARDLYYDHVLDYWGQGTTLTVAS VL: DIQMTQSPSSLSASLGERVSLTCRASQEISGYLIWLQQKPDGTIKRLIYAASTLDSGVPKRFSGNRSGSDYSLTISSLESEDFADYYCLQYASYPRTFGGGTKLEIKR"
result_number = 0.024

[[record]]
binder = "217 hIgG2 (antibody, V domains shown, Chimeric antibody: mouse Fv fused to the human IgG2 constant region) VH: EVQLVESGGGLVKPGGSLKLSCAASGFTFSDYGMHWVRQAPEKGLEWVAYISSGSSVIYYVDTVKGRFTISRDNAKNTLFLQMTSLRSEDTAMYYCARDLYYDHVLDSWGQGTTLTVSS VL: DIQMTQSPSSLSASLGERVSLTCRASQEIGGYLSWLQQKPDGTIKRLIYAASTLDSGVPKRFSGSRSGSDYSLTISSLESEDFADYYCLQYASYPRTFGGGTKLEIKR"
result_number = 0.029


Dear colleague, could you please provide Blocking of ATPase activity on cell surface (293T/17-cyno CD39, CellTiter Glo): EC50 for the binders listed below?
1. 201 hIgG2 (antibody, V domains shown, Chimeric antibody: mouse Fv fused to the human IgG2 constant region, expressed in 293F cells; also called chimeric antibody 201) VH: EVQLVESGGGLVKPGGSLKLSCAASGFTFSDYGMHWVRQAPEKGLEWVAYISSGSSIMYYADTVKGRFTISRDNAKNTLFLQMASLRSEDTAMYYCARDLYYDHVLDYWGQGTTLTVSS VL: DIQMTQSPSSLSASLGERVSLTCRASQEIRGYLIWLQQKPGGTIKRLIYAASTLDSGVPKRFSGSRSGSDYSLTISSLESEDFADYYCLQYTSYPRTFGGGTKLEIKR
2. 219 hIgG2 (antibody, V domains shown, Chimeric antibody: mouse Fv fused to the human IgG2 constant region; also called chimeric antibody 219) VH: EVQLVESGGGLVKPGGSLKLSCAASGFTFSDYGMHWVRQAPEKGLEWVAYISSGSSIRYYADTVKGRFTISRDNAKNTLFLQMTSLRSEDTAIYYCARDLYYDHVLDYWGQGTTLTVSS VL: DIQMTQSPSSLSASLGERVSLTCRASQEVSGYLNWLQQKPDGTIKRLIYAASTLDSGVPKRFSGSRSGSDYSLTISSLESEDFADYYCLQYASYPRTFGGGTKVEIKR

1. 0.014
2. 0.024
